- subject-of-test: oxytocin receptor of rat uterus cell membranes (rat) (UniProt P70536)
- Sequence (P70536 whole entry): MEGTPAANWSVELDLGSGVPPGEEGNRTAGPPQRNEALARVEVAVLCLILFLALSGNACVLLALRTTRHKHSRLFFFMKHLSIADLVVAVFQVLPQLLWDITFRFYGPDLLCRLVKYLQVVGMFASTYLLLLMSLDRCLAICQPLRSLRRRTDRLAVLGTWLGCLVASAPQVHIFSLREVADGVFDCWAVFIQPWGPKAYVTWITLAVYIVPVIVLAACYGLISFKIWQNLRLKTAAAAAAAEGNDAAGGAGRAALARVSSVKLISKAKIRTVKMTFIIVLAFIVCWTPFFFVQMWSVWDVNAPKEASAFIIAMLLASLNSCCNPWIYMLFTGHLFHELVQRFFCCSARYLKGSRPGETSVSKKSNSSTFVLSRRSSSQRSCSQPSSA
- method-summary: competition with 3H-oxytocin on rat uterus membranes, metallopeptide at 1 µM
Square brackets hold non-standard residues; d marks the D form. Ends that are not written are not given here. * marks the point of attachment. Cyclohexylacetyl = O=C(CC1CCCCC1)*; Chg = N[C@H](C(=O)O)C1CCCCC1; Orn = NCCC[C@H](N)C(=O)O; Dap = NC[C@H](N)C(=O)O

[
  {
    "binder": "Cyclohexylacetyl-[dW]IT[Dap]CAP[Orn]-NH2 (not fully specified (bridges); printed as Caca-D-Trp-Ile-*Thr-Dap-Cys*-Ala-Pro-Orn-NH₂; numbers in words are those of the source; also: Cys6 complexed to rhenium-oxo (Re=O)) [Re-complexed Caca-D-Trp-Ile-Thr-Dap-Cys-Ala-Pro-Orn-NH2]",
    "readout-units": "%",
    "% Inhibition at 1 µM": 9
  },
  {
    "binder": "Cyclohexylacetyl-[dW]ICT[Dap]AP[Orn]-NH2 (not fully specified (bridges); printed as Caca-D-*Trp-Ile-Cys*-Thr-Dap-Ala-Pro-Orn-NH₂; numbers in words are those of the source; also: Cys4 complexed to rhenium-oxo (Re=O)) [Re-complexed Caca-D-Trp-Ile-Cys-Thr-Dap-Ala-Pro-Orn-NH2]",
    "readout-units": "%",
    "% Inhibition at 1 µM": 0
  },
  {
    "binder": "[Chg][dW]CIT[Dap]AP[Orn]-NH2 (not fully specified (bridges); printed as Re-complexed Chg-D-Trp-Cys-Ile-Thr-Dap-Ala-Pro-Orn-NH2; also: Cys3 complexed to rhenium-oxo (Re=O)) [Re-complexed Chg-D-Trp-Cys-Ile-Thr-Dap-Ala-Pro-Orn-NH2]",
    "readout-units": "%",
    "% Inhibition at 1 µM": 0
  }
]
